Provenance of the data: PubChem BioAssay

assay: viability loss with induced miR-34 in A549 – imaging, A549 dox-inducible miR-34, nuclei and caspase counts, primary screen (AID 1347080); details: A549 miR-34 inducible, Hoechst nuclei count, 48 h; measured here: total cells with miR-34 induction; stronger effect = lower value
READOUT_TYPE: cell count
No unit in the answer, only the number.

The compound `CC(C)[C@H](NS(=O)(=O)c1ccc(-c2ccc(Br)cc2)cc1)C(=O)O` showed cell count equal to 8980

The compound `CCCCC[C@H](O)/C=C/[C@H]1C(=O)C[C@H](O)[C@@H]1CCCCCCCO` showed cell count equal to 5820

The compound `Cn1cnc2c(F)c(Nc3ccc(Br)cc3F)c(C(=O)NOCCO)cc21` showed cell count equal to 4350

The compound `Nc1nc2[nH]c(=O)[nH]c2c(=O)[nH]1` showed cell count equal to 6070

The compound `CNC(=O)Nc1ccc(-c2nc(N3CC4CCC(C3)O4)c3cnn(C4CCC5(CC4)OCCO5)c3n2)cc1` showed cell count equal to 3730

====

assay: JHH-DIPG-1 glioma cell viability, MIPE5.0 library, CellTiter-Glo luminescence, qHTS (AID 1347067); conditions: JHH-DIPG-1 glioma viability, CellTiter-Glo ATP luminescence;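 also: cells exposed to compound for 48 hours before readout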
Records with an inconclusive call do not appear. Calls of active or inactive are those of the source. Cut-off not given; nearly all actives show AC50 up to about 26 µM.
Could you please pick one outcome from this set? yes (1) (active), no (0) (inactive)

Test call for this molecule, please: `CC(C)(O)CC(=O)NCCn1ccc2ncnc(Nc3ccc(Oc4cccc(C(F)(F)F)c4)c(Cl)c3)c21`
yes (1)

Test call for this molecule, please: `COc1ccc(S(=O)(=O)Nc2cccnc2Nc2ccc(O)cc2)cc1`
yes (1)

Test call for this molecule, please: `O=C1NC(=O)C(c2cnc3ccccn23)=C1c1cn2c3c(cccc13)CN(C(=O)N1CCOCC1)CC2`
yes (1)

Test call for this molecule, please: `COc1ccc(-n2nc(C(N)=O)c3c2C(=O)N(c2ccc(N4CCCCC4=O)cc2)CC3)cc1`
no (0)

Test call for this molecule, please: `COc1ccc2cc(OCC3(C(=O)O)CN(C(=O)c4ccc(F)cc4)C3)ccc2c1`
no (0)

Test call for this molecule, please: `Nc1n[nH]c2nnc(-c3c(-c4ccccc4)nn4ccccc34)cc12`
no (0)

Test call for this molecule, please: `Cc1cc(OCCCc2c3n(c4c(-c5c(C)nn(C)c5C)c(Cl)ccc24)[C@H](C)CN(c2cn(C)c4ccc(C(=O)O)cc24)C3=O)cc(C)c1Cl`
yes (1)

Test call for this molecule, please: `COc1cc2nc(N3CCCN(C)CC3)nc(NC3CCN(Cc4ccccc4)CC3)c2cc1OC`
yes (1)

Test call for this molecule, please: `COc1cc(F)c(F)c(Nc2ccc(I)cc2F)c1NS(=O)(=O)C1(C[C@H](O)CO)CC1`
yes (1)

Test call for this molecule, please: `O=C(c1ccc(C(=O)N2CCC(N3CCCC3)CC2)c(Nc2ccccc2)c1)N1CCC(N2CCCC2)CC1`
no (0)

Test call for this molecule, please: `Cc1cn(CCN2CCN(c3ccccc3-c3cc(C#N)cc(C(=O)NCCCN4CCCC4)c3)CC2)c2ccccc12`
yes (1)

Test call for this molecule, please: `CCCc1cc(C)[nH]c(=O)c1CNC(=O)c1cc(-c2ccc(N3CCN(C(C)C)CC3)nc2)cc2c1cnn2C(C)C`
yes (1)

Test call for this molecule, please: CN[C@@H]1[C@@H](O)[C@@H](O[C@@H]2[C@@H](O)[C@H](O[C@H]3O[C@H](CN)[C@@H](O)[C@H](O)[C@H]3O)[C@@H](N)C[C@H]2NC(=O)C(O)CN)OC[C@]1(C)O (stereo not given in full)
no (0)

Test call for this molecule, please: `Cc1ccc(C(=O)Nc2ccc(CN3CCN(C)CC3)c(C(F)(F)F)c2)cc1C#Cc1cnc2[nH]ncc2c1`
yes (1)

Test call for this molecule, please: `CCn1nnc2c(N3CCOCC3)nc(-c3ccc(NC(=O)Nc4ccc(C(=O)N5CCN(C)CC5)cc4)cc3)nc21`
yes (1)

Test call for this molecule, please: `Cn1cc(C[C@@H](N)C(=O)O)c2ccccc21`
no (0)

Test call for this molecule, please: O=C(O)C1=CC(O)C(O)[C@H](O)C1 (stereo not given in full)
no (0)

Test call for this molecule, please: `NC(=O)/C(=C/n1cnc(-c2cc(C(F)(F)F)cc(C(F)(F)F)c2)n1)c1cncnc1`
yes (1)

Test call for this molecule, please: `C=C1[C@H](OC(=O)/C=C(\C)CC)C[C@@H](C(C)C)[C@@H]2[C@H]([C@@H](C)OC(C)=O)C(=O)C[C@@H]12`
yes (1)

Test call for this molecule, please: `N#CNC(=NCCCCCCOc1ccc(Cl)cc1)Nc1ccncc1`
yes (1)

Test call for this molecule, please: `N=C(N)c1ccc2nc(-c3cc(CC(=O)N[C@@H](CC(=O)O)C(=O)O)cc(-c4cc(S(N)(=O)=O)ccc4O)c3O)[nH]c2c1`
no (0)

Test call for this molecule, please: `Cc1cnc(Nc2cccc(CN3CCOCC3)c2)nc1Nc1cccc(S(=O)(=O)NC(C)(C)C)c1`
yes (1)

Test call for this molecule, please: `Cn1cc(-c2cnn3c(N)c(Br)c([C@@H]4CCCNC4)nc23)cn1`
no (0)

Test call for this molecule, please: `NC(=O)c1ccc(N(C(N)=O)c2c(F)cccc2F)nc1-c1ccc(F)cc1F`
no (0)

Test call for this molecule, please: `Cc1nc(N)sc1-c1ccnc(Nc2ccc(N3CCOCC3)cc2)n1`
yes (1)

Test call for this molecule, please: `C[C@H](CN(C)C)Oc1nc(Nc2cc3cccc(Cl)c3cn2)cnc1C#N`
yes (1)

Test call for this molecule, please: `CS(=O)(=O)Oc1ccc2c(NC(N)=O)c(C(=O)c3ccc(Cl)cc3Cl)oc2c1`
no (0)

Test call for this molecule, please: `CC1(C)SCCN(S(=O)(=O)c2ccc(OCC#CCO)cc2)[C@H]1C(=O)NO`
no (0)

Test call for this molecule, please: `COc1ccc(N(C)c2nc(C)nc3ccccc23)cc1`
yes (1)

Test call for this molecule, please: `Cn1cc(-c2ccc3nnc(Sc4ccc5ncccc5c4)n3n2)cn1`
no (0)

Test call for this molecule, please: `Nc1cc(COc2c(Cl)cc(C[C@H](N)C(=O)O)cc2Cl)c2oc(-c3ccccc3)nc2c1`
no (0)

Test call for this molecule, please: `CC(=O)OCCN1C(=O)c2c(C)nc3ccc(S(=O)(=O)N4CCOCC4)cc3c2C1=O`
no (0)

Test call for this molecule, please: `CCc1cc2c(c(OCC(F)(F)F)c(C(=O)NC3CCN(C(=O)CO)CC3)n2C)c(=O)n1CC(=O)c1ccccc1`
no (0)

Test call for this molecule, please: `Cn1cc(C2=C(c3cn(C)c4cc([N+](=O)[O-])ccc34)C(=O)NC2=O)c2ccccc21`
yes (1)

Test call for this molecule, please: `CC(C)(O)[C@H]1CC[C@@](C)([C@H]2[C@@H](O)C[C@@]3(C)[C@@H]4C[C@H](O[C@@H]5O[C@H](CO)[C@@H](O)[C@H](O)[C@H]5O)[C@H]5C(C)(C)[C@@H](O[C@@H]6OC[C@@H](O)[C@H](O)[C@H]6O)CC[C@@]56C[C@@]46CC[C@]23C)O1`
no (0)
